Species: Rattus norvegicus
Run Description: Open TG-GATES - Regimen: Single
Type: toxicity, organism-based, Sprague-Dawley
Design: regimen Single, gender Male, age 6 weeks
Particulars: in vivo, po, 300 mg/kg, 24 h, tissue Plasma, route gavage, dose level Middle
Answer each item with its documented RALB.
API: value field is a number in g/dL; no unit string.

// fetch RALB given entry `Clc1ccccc1CN1CCc2sccc2C1`
3.5

Given CCc1cc(C(N)=S)ccn1 [ETHIONAMIDE] , respond with its RALB.
3.4

Given `O=C(O)c1cc(/N=N/c2ccc(S(=O)(=O)Nc3ccccn3)cc2)ccc1O` , respond with its RALB.
3.3

Recall and state the measured RALB for `C[C@H](CS)C(=O)N1CCC[C@H]1C(=O)O` .
4.1

Return reported RALB. Input compound: `O=C(O)c1cn(C2CC2)c2cc(N3CCNCC3)c(F)cc2c1=O`
3.9
